pIC50: −log10 of the molar value.
This section lists pIC50 readings for VEGF receptor tyrosine kinase-2 (Homo sapiens, UniProt P35968).
measured.quantity: pIC50

A: C#CCNc1nc(Nc2ccc(N=S(C)(C)=O)cc2)ncc1C(F)(F)F [Example 10]
B: C[C@@H](O)[C@@H](C)Nc1nc(Nc2ccc(N=S(C)(C)=O)cc2)ncc1Br [Example 2]
Ask: Exercise: compare A and B ; which one has the greater pIC50? Mark your selection by writing its label.
Result: B
(B: 7.57, A: 6.80)

###

- test.system: CDK2/CycE (Homo sapiens)
- Construct: GST
- protocol.notes: CDK2/CycE kinase assay
- run.conditions: histone IIIS substrate, 0.5 μm ATP, 33P filter assay
- Source text: Recombinant CDK2- and CycE-GST-fusion proteins, purified from baculovirus-infected insect cells (Sf9), were purchased by ProQinase GmbH, Freiburg. Histone IIIs, which was used as a kinase substrate, was purchased by the Sigma Company. […]
pIC50: −log10 of the molar value.
measured.quantity: pIC50

The compound listed as CC(C)[C@H](CO)Nc1nc(Nc2ccc(N=S(C)(C)=O)cc2)ncc1I has a reported pIC50 of 6.70

a: CS(C)(=O)=Nc1ccc(Nc2ncc(Br)c(N[C@H]3CCCC[C@@H]3O)n2)cc1
b: C[C@@H](O)[C@@H](C)Oc1nc(Nc2ccc(N=S(C)(C)=O)cc2)ncc1Br
c: C[C@@H](Nc1nc(Nc2ccc(N=S(C)(C)=O)cc2)ncc1Br)C(C)(C)O
Ask: Output the entries ranked by pIC50 from maximum down to minimum. In plain terms: list the labels in the order you were asked to.
Result: b, c, a
(b: 7.92, c: 7.57, a: 6.34)
